All figures here come from the supplement of paper PMC8728848.

# tgt: Gal(b1-3)GlcNAc(b1-3)Gal(b1-3)GlcNAc
# test.details: glycan array binding signal (z-score within array); higher = stronger binding
# condition: glycan notation: IUPAC condensed, linker removed
Only a selection was taken, and the strongest signals are over-represented in it overall.
Measured glycan array binding signal (z-score) accompanies every entry in the list below.
Form rule: numeric answer, no unit written next to it.

CD72 ectodomain (Homo sapiens), P21854 (protein) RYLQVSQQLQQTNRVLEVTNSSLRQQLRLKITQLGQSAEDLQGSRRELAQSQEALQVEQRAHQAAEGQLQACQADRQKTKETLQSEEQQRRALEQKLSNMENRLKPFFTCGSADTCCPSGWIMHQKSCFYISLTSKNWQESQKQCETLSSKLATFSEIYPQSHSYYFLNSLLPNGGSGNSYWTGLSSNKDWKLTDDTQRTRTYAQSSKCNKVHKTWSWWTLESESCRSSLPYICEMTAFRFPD: -0.958
Threefoil (Haloarcula marismortui) (protein) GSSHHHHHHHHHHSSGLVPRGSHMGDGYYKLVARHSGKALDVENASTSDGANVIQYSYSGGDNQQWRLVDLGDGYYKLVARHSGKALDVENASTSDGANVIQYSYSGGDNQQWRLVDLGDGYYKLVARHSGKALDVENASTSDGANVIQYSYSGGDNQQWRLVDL: -0.266

Please look at the following binder next.
QUERY: Field request: glycan array binding signal (z-score) | item: Sebin2 (Coprinopsis cinerea), A8PE78 (protein) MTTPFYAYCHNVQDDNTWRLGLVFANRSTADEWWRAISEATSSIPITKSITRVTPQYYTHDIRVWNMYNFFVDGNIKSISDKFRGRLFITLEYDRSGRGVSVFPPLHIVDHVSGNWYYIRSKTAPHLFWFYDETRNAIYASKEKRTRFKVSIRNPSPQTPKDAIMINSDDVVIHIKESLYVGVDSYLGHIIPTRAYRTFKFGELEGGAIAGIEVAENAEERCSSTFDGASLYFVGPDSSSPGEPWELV
RESULT: -0.397
